test details: Cytotoxicity against human HuH7 cells assessed as reduction in rRNA levels at 120 hrs by RT-PCR analysis
Type: cell-based, Huh-7
quantity measured: CC50 at 120 h

{"columns": ["chemical structure", "quantity measured", "endpoint result"],
 "data": [
  ["Cc1cn([C@H]2C[C@H](N=[N+]=[N-])[C@@H](CO)O2)c(=O)[nH]c1=O", "CC50 at 120 h", "> 10 µM"],
  ["C[C@@]1(O)[C@H](O)[C@@H](CO)O[C@H]1n1c2ncnc(N)c2c2c(=O)[nH]c(=O)[nH]c21", "CC50 at 120 h", "> 10 µM"],
  ["C[C@@]1(O)[C@H](O)[C@@H](CO)O[C@H]1n1c2ncnc(N)c2c2c(=O)[nH]c(S)nc21", "CC50 at 120 h", "> 10 µM"],
  ["C[C@@]1(O)[C@H](O)[C@@H](CO)O[C@H]1n1c2ncnc(N)c2c2c(=O)[nH]c(N)nc21", "CC50 at 120 h", "3 µM"]
]}

----------
test details: Cytotoxicity against human CEM cells
Type: cell-based
setup conditions: CEM (CCRF-CEM) cells

{"columns": ["chemical structure", "qualifier operator", "CC50, µM"],
 "data": [
  ["C[C@@]1(O)[C@H](O)[C@@H](CO)O[C@H]1n1c2ncnc(N)c2c2c(=O)[nH]c(S)nc21", ">", 100],
  ["Nc1ncnc2c1c1c(=O)[nH]c(S)nc1n2[C@@H]1O[C@H](CO)[C@@H](O)[C@H]1O", "=", 8.2],
  ["C[C@@]1(O)[C@H](O)[C@@H](CO)O[C@H]1n1c2ncnc(N)c2c2c(=O)[nH]c(=O)[nH]c21", ">", 100],
  ["Nc1nc2c(c(=O)[nH]1)c1c(N)ncnc1n2[C@@H]1O[C@H](CO)[C@@H](O)[C@H]1O", "=", 20.2],
  ["C[C@@]1(O)[C@H](O)[C@@H](CO)O[C@H]1n1c2ncnc(N)c2c2c(=O)[nH]c(N)nc21", "=", 36.5],
  ["Cc1cn([C@H]2C[C@H](N=[N+]=[N-])[C@@H](CO)O2)c(=O)[nH]c1=O", "=", 14.3],
  ["Nc1ncnc2c1c1c(N)ncnc1n2[C@@H]1O[C@H](CO)[C@@H](O)[C@H]1O", "=", 29.5],
  ["C[C@@]1(O)[C@H](O)[C@@H](CO)O[C@H]1n1c2ncnc(N)c2c2c(N)ncnc21", ">", 100]
]}

----------
test details: Cytotoxicity against human HuH7 cells assessed as reduction in rRNA levels at 120 hrs by RT-PCR analysis
Assay type: cell-based, Huh-7
Measured CC50 at 120 h, listed per entry for reference.
quantity measured: CC50 at 120 h

{"columns": ["compound", "quantity measured", "endpoint result"],
 "data": [
  ["Nc1nc2c(c(=O)[nH]1)c1c(N)ncnc1n2[C@@H]1O[C@H](CO)[C@@H](O)[C@H]1O", "CC50 at 120 h", "< 10 µM"],
  ["CCOC(=O)[C@H](C)NP(=O)(OC[C@H]1O[C@@H](n2c3ncnc(N)c3c3c(N)ncnc32)[C@](C)(O)[C@@H]1O)Oc1ccccc1 (stereo not given in full)", "CC50 at 120 h", "> 10 µM"],
  ["Nc1ncnc2c1c1c(N)ncnc1n2[C@@H]1O[C@H](CO)[C@@H](O)[C@H]1O", "CC50 at 120 h", "> 10 µM"],
  ["C[C@@]1(O)[C@H](O)[C@@H](CO)O[C@H]1n1c2ncnc(N)c2c2c(N)ncnc21", "CC50 at 120 h", "> 10 µM"],
  ["Nc1ncnc2c1c1c(=O)[nH]c(S)nc1n2[C@@H]1O[C@H](CO)[C@@H](O)[C@H]1O", "CC50 at 120 h", "> 10 µM"]
]}
